- Tested on: primary human hepatocytes
- Protocol Description: IRES screening, Gaussia luciferase from LNP-oRNA (Table 27)
- Applied Conditions: Gaussia luciferase luminescence in supernatant 48 hours after LNP-oRNA transfection, normalized to control (caprine kobuvirus IRES)
Experimental Readout: [Mod] PHH Fold Change (Fold Change)
I only need the number, in Fold Change, no unit after it.

CCCCCCCCC(CCCCCC)C(=O)OCCCCCCN(CCCCCCOC(=O)C(CCCCCC)CCCCCCCC)Cc1nccn1C (centres unmarked) [Lipid 10a-128] = 1.021
CCCCCCCCCN(CCCCn1ccnc1C)C(CCCCCCCCC(=O)OCC(CCCC)CCCCCC)CCCCCCCCC(=O)OCC(CCCC)CCCCCC (centres unmarked) [Lipid 10a-147] = 0.5594
CC(C)CCCC(C)CC(=O)OCCCCCCC(CCCCCCOC(=O)CC(C)CCCC(C)C)OC(=O)CCCn1ccnc1 (centres unmarked) [Lipid 10a-116] = 0.5299
CC(CCOC(=O)CCCCCCCCC(CCCCCCCCC(=O)OCCC(C)CC(C)(C)C)OC(=O)CCCn1ccnc1)CC(C)(C)C (centres unmarked) [Lipid 10a-105] = 0.642
CCCCC(CC)CCC(=O)OCCCCCCN(CCCCCCOC(=O)CCC(CC)CCCC)CCCn1ccnc1C (centres unmarked) [Lipid 10a-110] = 0.7175
CCCCC/C=C\C/C=C\CCCCCCCC(=O)OCC(COC(=O)CCC(OCCCCCCCC)OCCCCCCCC)COC(=O)OCCCn1ccnc1 (centres unmarked) [Lipid 10a-140] = 0.7154
CCCCC(C)CCC(=O)OCCCCCCC(CCCCCCOC(=O)CCC(C)CCCC)OC(=O)CCCn1ccnc1 (centres unmarked) [Lipid 10a-113] = 0.8279
CCCCCCCCCCCCCCN(Cc1nccn1C)C(CCCCCCCCC(=O)OCC(CCCC)CCCCCC)CCCCCCCCC(=O)OCC(CCCC)CCCCCC (centres unmarked) [Lipid 10a-136] = 0.4286
CC(C)CCCC(C)CC(=O)OCCCCCCN(CCCCCCOC(=O)CC(C)CCCC(C)C)CCCn1ccnc1 (centres unmarked) [Lipid 10a-122] = 0.8322
CC(C)=CCC/C(C)=C/C(=O)OCCCCCCN(CCCCCCOC(=O)/C=C(\C)CCC=C(C)C)CCCn1ccnc1 [Lipid 10a-126] = 0.6456

Query string: Can you share its [Mod] PHH Fold Change? I mean this compound: Cc1nccn1CCCN(CCCCCCCCC(=O)OCCC(C)CC(C)(C)C)CCCCCCCCC(=O)OCCC(C)CC(C)(C)C (centres unmarked) [Lipid 10a-106]
Result string: 1.093

Query string: Given CCCCCCCCC(CCCCCC)C(=O)OCCCCCCN(CCCCCCOC(=O)C(CCCCCC)CCCCCCCC)CCC(C)n1ccnc1 (centres unmarked) [Lipid 10a-130] , state its recorded [Mod] PHH Fold Change.
Result string: 0.5728

Query string: Endpoint output: [Mod] PHH Fold Change of CC(C)=CCC/C(C)=C/C(=O)OCCCCCCC(CCCCCCOC(=O)/C=C(\C)CCC=C(C)C)OC(=O)CCCn1ccnc1 (centres unmarked) [Lipid 10a-120] . Value?
Result string: 0.4893

Query string: Fill blank: measured [Mod] PHH Fold Change of the compound CCCCCCCCCN(CCn1ccnc1C)C(CCCCCCCCC(=O)OCC(CCCC)CCCCCC)CCCCCCCCC(=O)OCC(CCCC)CCCCCC (centres unmarked) [Lipid 10a-145] is ____.
Result string: 0.6359
